# System: RAMOS
# Measurement parameters: ramos cells
Property label: pIC50
Units for pIC50: none; it is -log10 of a concentration expressed in mol/L.

Recorded pIC50 (molecule `COc1c(C)cc2c(c1O)[C@@H]1[C@@H]3Cc4c(OC(C)=O)c(C)c5c(c4[C@H](COC(=O)CCc4ccccc4)N3[C@@H](O)[C@H](C2)N1C)OCO5` ): 8.73
